Molecular target: T1, GLD-1(135-336) (Caenorhabditis elegans, UniProt Q17339 135-336)
T1 sequence: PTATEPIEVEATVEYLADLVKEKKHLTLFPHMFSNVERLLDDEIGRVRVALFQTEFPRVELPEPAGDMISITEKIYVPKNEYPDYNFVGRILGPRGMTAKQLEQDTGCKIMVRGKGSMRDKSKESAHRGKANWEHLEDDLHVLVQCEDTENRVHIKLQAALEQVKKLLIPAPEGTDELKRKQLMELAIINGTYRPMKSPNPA
Assay: F-EMSA
Measure: Kd

IN: Would you mind telling me what Kd value was observed for UUUUUCUCCCUCUAGACUAACCCUGUAAGCU (ssRNA) [∆5′ 3′ PRE] ?
OUT: 20 nM
